system: Wnt3a-stimulated Wnt pathway activation; assay: TopFlash assay in reporter wild-type HEK293T line, Wnt3a-stimulated; assay type: cell-based, human; conditions: Homo sapiens, HEK-293T; wild-type HEK293T reporter line, Wnt3a
quantity: pIC50
pIC50 here is simply -log10 of the concentration when that concentration is written in mol/L.

The compound listed as O=C(Nc1ccc([N+](=O)[O-])cc1Cl)c1cc(Cl)ccc1O [niclosamide] has a reported pIC50 of 7.00

These measurements were taken from paper PMC11650735.
